Listing of entries alongside the reported Purity NH4HCO3 0.1M 6 days.
test: Chemical stability testing: incubation in HCl, NaOH, H2O2 or NH4HCO3 at 40° C., remaining purity by RP-HPLC; format: physicochemical; settings: 40° C., 2 mg/ml, pH 8, RP-HPLC, relative to the purity at T=0
No end group written: not given here.
readout.label: Purity NH4HCO3 0.1M 6 days

>>> endpoint_value("[Gly2, Glu3, Thr5, Ser8, Leu10, Ala11,16,24,28]hGLP-2(1-33)-(Lys)6-NH2 (HGEGTFSSELATILDALAARDFIAWLIATKITDKKKKKK-NH2) [Compound 1848]")
"93%"
>>> endpoint_value("[Gly2, Glu3, Ser8,11, Leu10, Ala16,24,28]hGLP-2(1-33)-(Lys)6-NH2 (HGEGSFSSELSTILDALAARDFIAWLIATKITDKKKKKK-NH2) [Compound 1846]")
"82%"
>>> endpoint_value("[Gly2, Glu3, Ser8, Leu10, Ala11,16,24,28]hGLP-2(1-33)-(Lys)6-NH2 (HGEGSFSSELATILDALAARDFIAWLIATKITDKKKKKK-NH2) [Compound 1849]")
"86%"
>>> endpoint_value("[Gly2, Glu3, Ser8, Leu10, Ala11,16,24,28]hGLP-2(1-33)-NH2 (HGEGSFSSELATILDALAARDFIAWLIATKITD-NH2) [Compound 1858]")
"91%"
>>> endpoint_value("[Gly2, Thr7, Ser8, Leu10, Ala11,24]hGLP-2(1-30)-NH2 (HGDGSFTSELATILDNLAARDFIAWLIQTK-NH2) [Compound 1834]")
"91%"

Reference for the values: patent US9580487B2
